assayed_system: T1, anti-CD28 scFv (VH-linker 1-VL) (biotinylated (site not stated))
T1 construct: Captured as biotinylated scFv on neutravidin coated plates in the phage ELISA
T1 sequence (scFv, as listed by the source): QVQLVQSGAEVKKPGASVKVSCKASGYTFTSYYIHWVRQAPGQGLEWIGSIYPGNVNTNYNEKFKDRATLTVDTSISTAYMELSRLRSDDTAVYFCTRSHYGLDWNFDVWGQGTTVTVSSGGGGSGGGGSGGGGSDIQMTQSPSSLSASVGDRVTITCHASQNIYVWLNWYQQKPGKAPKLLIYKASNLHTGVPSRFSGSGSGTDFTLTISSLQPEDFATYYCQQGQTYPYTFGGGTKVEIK
protocol: phage ELISA; biotinylated scFv on neutravidin plate; anti-M13-HRP;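 further: crude clonal phage supernatant added to wells pre-incubated with soluble CD28 protein or only blocking buffer, then washed, bound phage read out with an HRP-linked anti-M13 antibody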
Consider the following binders; for each one, report its CD28 scFv signal.
Answer with a number only.

*Q* # CD28 scFv signal lookup, item MDWCPRYLWPVCFH (on phage (pIII fusion)) [Phage-307 clonal phage peptide]
*A* 2.39

*Q* And what about the binder MDWCPRHMWHECFA (on phage (pIII fusion)) [Phage-263 clonal phage peptide] ?
*A* 2.52

*Q* Likewise for MDWCPRDRWADCFF (on phage (pIII fusion)) [Phage-225 clonal phage peptide] ?
*A* 0.392

*Q* Follow-up entry: MDWCPRHLWSVCFN (on phage (pIII fusion)) [Phage-255 clonal phage peptide]
*A* 2.65

*Q* Also, MDWCPRNLWHACFN (on phage (pIII fusion)) [Phage-259 clonal phage peptide] please.
*A* 1.57

*Q* Please answer likewise for MERCPRYLWHMCYS (on phage (pIII fusion)) [Phage-286 clonal phage peptide]
*A* 2.59

*Q* Continue with MDWCPRYLWDYCFA (on phage (pIII fusion)) [Phage-280 clonal phage peptide]
*A* 2.71

*Q* What do we get for MDWCPRALWDHCFF (on phage (pIII fusion)) [Phage-292 clonal phage peptide] ?
*A* 2.49
